Reference source for all entries: patent US10112934B2

target: UniProt P08183; test: MDCK assay: efflux in MDCK cells transfected with the human MDR1 gene (assay 3); format: in vitro ADME; conditions: MDCK-MDR1 cell monolayers, pH 7.4, 37° C., read-out: MDCK efflux ratio (BA/AB)
Sequence (P08183 whole entry): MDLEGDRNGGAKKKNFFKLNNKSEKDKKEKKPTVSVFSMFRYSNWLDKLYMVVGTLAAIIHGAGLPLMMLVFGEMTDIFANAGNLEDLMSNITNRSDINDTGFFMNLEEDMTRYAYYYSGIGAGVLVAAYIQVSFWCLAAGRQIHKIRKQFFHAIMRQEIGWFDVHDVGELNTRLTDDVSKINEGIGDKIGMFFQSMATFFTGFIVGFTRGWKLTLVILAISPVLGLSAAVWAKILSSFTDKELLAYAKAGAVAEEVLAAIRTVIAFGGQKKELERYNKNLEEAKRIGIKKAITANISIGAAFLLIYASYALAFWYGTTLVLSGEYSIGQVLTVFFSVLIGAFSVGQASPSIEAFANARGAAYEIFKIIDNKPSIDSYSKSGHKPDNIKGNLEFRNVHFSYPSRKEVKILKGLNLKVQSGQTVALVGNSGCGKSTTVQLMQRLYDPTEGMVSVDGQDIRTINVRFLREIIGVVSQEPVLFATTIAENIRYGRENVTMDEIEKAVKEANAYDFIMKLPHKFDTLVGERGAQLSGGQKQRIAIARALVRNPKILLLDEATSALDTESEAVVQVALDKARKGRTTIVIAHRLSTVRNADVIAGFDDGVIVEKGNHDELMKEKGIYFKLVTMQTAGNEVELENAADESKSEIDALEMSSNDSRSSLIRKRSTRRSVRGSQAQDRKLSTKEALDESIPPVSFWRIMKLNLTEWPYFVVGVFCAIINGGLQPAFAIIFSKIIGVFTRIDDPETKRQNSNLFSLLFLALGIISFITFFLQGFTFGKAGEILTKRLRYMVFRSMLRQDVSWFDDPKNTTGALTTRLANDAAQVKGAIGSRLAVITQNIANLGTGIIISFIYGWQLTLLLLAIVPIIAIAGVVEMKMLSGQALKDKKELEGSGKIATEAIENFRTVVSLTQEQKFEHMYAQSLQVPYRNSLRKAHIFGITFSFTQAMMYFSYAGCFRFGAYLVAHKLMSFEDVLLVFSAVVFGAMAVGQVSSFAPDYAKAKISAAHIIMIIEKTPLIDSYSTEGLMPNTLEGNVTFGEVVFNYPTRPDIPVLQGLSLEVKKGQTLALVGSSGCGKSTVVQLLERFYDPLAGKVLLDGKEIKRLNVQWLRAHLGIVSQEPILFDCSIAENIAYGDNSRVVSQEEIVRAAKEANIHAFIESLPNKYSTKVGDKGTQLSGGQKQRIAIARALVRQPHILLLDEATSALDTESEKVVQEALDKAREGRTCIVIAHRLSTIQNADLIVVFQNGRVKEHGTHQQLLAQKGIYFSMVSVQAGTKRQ
Please mark Criterion met if the recorded efflux ratio is equal to or greater than 5, and Criterion not met if it falls below.

SMILES_ENTRY	ASSIGNED_LABEL
CC(C)(C#N)c1cc(NC(=O)C(C)(C)S(=O)(=O)CC2CCOCC2)on1	Criterion met
COCC(C)(C)c1cc(NC(=O)C(C)(C)N(C)CC2CCOCC2)on1	Criterion not met
COCC(C)(C)c1cc(NC(=O)C(C)(C)S(=O)(=O)CC2CCOCC2)on1	Criterion not met
CN(CC1CCOCC1)C(C)(C)C(=O)Nc1nnc(C(C)(C)CO)s1	Criterion met
CC(C)(CO)c1cc(NC(=O)C(C)(C)S(=O)(=O)CC2CCOCC2)on1	Criterion met
CC(C)(CO)c1cc(NC(=O)C(C)(C)S(=O)(=O)C2CCOCC2)on1	Criterion met
CN(C1CCN(S(C)(=O)=O)CC1)C(C)(C)C(=O)Nc1nnc(C(C)(C)C#N)s1	Criterion met
COCC(C)(C)c1cc(NC(=O)C(C)(C)S(=O)(=O)C2CCOCC2)on1	Criterion not met
CN(C1CCN(S(C)(=O)=O)CC1)C(C)(C)C(=O)Nc1cc(C(C)(C)CO)no1	Criterion met
CN(CC1CCOCC1)C(C)(C)C(=O)Nc1cc(C(C)(C)C#N)no1	Criterion not met
CC(C)(C#N)c1cc(NC(=O)C(C)(C)S(=O)(=O)C2CCOCC2)on1	Criterion not met
CC(C)(O)c1cc(NC(=O)C(C)(C)S(=O)(=O)C2CCOCC2)on1	Criterion not met
CN(CC1CCOCC1)C(C)(C)C(=O)Nc1nnc(C(C)(C)C#N)s1	Criterion not met
CC(C)(C#N)c1cc(NC(=O)C(C)(C)S(=O)(=O)CCCC(F)(F)F)on1	Criterion not met
CN(CC1CCOCC1)C(C)(C)C(=O)Nc1cc(C(C)(C)CO)no1	Criterion not met
